Recorded values, source patent US20250000869A1.

EXPERIMENT_DESCRIPTION: Solubility of Compound 1 in solvent systems comprising PEG400
Type: physicochemical
TEST_CONDITIONS: aqueous with cosolvent or surfactant or cyclodextrin; PEG400:benzyl alcohol:phosphate buffer (89:1:10) vol:vol; Phosphate buffer 12 mmol/L pH 6.7; room temperature; read-out: Determined Solubility
OBSERVABLE: solubility (µg/mL)
Give a bare numeral; the unit µg/mL is implied.

### Prompt // solubility lookup, key: `CCCOc1ccc(S(=O)(=O)N2CCC(CCO[N+](=O)[O-])CC2)cc1-c1nn2c(CCC)c(/C=N/O)c(C)c2c(=O)[nH]1`
### Response 1770

###

EXPERIMENT_DESCRIPTION: Solubility screening of Compound 1 in various solvents/solvent systems
Format: physicochemical
TEST_CONDITIONS: polyethylene glycol PEG 400, organic solvent or mixture, Polyethylene glycol PEG 400; read-out: Determined Solubility
Text: A solubility screening of Compound 1 was effected. […] In general, three potential approaches where covered: i) polar organic co-solvents, ii) solubilization by surfactants and iii) oils which may, in particular, serve as a basis of an emulsion gel. A phosphate buffer of pH 6.5 with low molarity was used as this salt and pH is suitable for application on wounds. It is of note that the resulting pH of the screened systems is about 7.3.
OBSERVABLE: solubility (mg/mL)
A number alone suffices; assume mg/mL.

### Prompt solubility lookup needed for `CCCOc1ccc(S(=O)(=O)N2CCC(CCO[N+](=O)[O-])CC2)cc1-c1nn2c(CCC)c(/C=N/O)c(C)c2c(=O)[nH]1` , thanks.
### Response 10.5

###

EXPERIMENT_DESCRIPTION: Solubility of Compound 1 in solvent systems comprising PEG400
Type: physicochemical
TEST_CONDITIONS: aqueous with cosolvent or surfactant or cyclodextrin; PEG400:benzyl alcohol:phosphate buffer (59:1:40) vol:vol; Phosphate buffer 12 mmol/L pH 6.7; room temperature; read-out: Determined Solubility
OBSERVABLE: solubility

### Prompt Suppose we examine the molecule CCCOc1ccc(S(=O)(=O)N2CCC(CCO[N+](=O)[O-])CC2)cc1-c1nn2c(CCC)c(/C=N/O)c(C)c2c(=O)[nH]1 [Compound 1] ; what solubility value has been reported?
### Response 12.8 µg/mL

###

EXPERIMENT_DESCRIPTION: Solubility screening of Compound 1 in various solvents/solvent systems
Type: physicochemical
TEST_CONDITIONS: octyldodecanol (Kollicream OD), oil or lipid, Octyldodecanol (Kollicream OD); read-out: Determined Solubility
OBSERVABLE: solubility (µg/mL)
Provide the reading as a plain figure in µg/mL.

### Prompt # get_value(readout='solubility', item= `CCCOc1ccc(S(=O)(=O)N2CCC(CCO[N+](=O)[O-])CC2)cc1-c1nn2c(CCC)c(/C=N/O)c(C)c2c(=O)[nH]1` )
### Response 28

###

EXPERIMENT_DESCRIPTION: Solubility screening of Compound 1 in various solvents/solvent systems
Format: physicochemical
TEST_CONDITIONS: 10% poloxamer 407 in phosphate buffer, pH 6.5, aqueous with cosolvent or surfactant or cyclodextrin, 10% poloxamer 407 in PB; PB = Phosphate buffer 10 mmol/L pH 6.5; read-out: Determined Solubility
OBSERVABLE: solubility (µg/mL)
Unit µg/mL implied. Number only.

### Prompt Tell me the measured solubility of `CCCOc1ccc(S(=O)(=O)N2CCC(CCO[N+](=O)[O-])CC2)cc1-c1nn2c(CCC)c(/C=N/O)c(C)c2c(=O)[nH]1` , please.
### Response 23.2
